# Target: HLA-A*31:01
# Protocol Details: IEDB peptide-MHC binding, purified MHC/direct/fluorescence; filed as Kd, often an IC50 or EC50 that approximates it; bounds were set here for any values at or beyond the usual limits of such assays
# Protocol Conditions: source organism: Mycobacterium tuberculosis C
pKd: −log10 of the molar value.

[
  {
    "Residue Codes": "TPKIRFWHV",
    "pKd": "≤ 4.70"
  }
]

----------
# Target: HLA-A*26:01
# Protocol Details: IEDB peptide-MHC binding, purified MHC/competitive/fluorescence; filed as Kd, often an IC50 or EC50 that approximates it; bounds were set here for any values at or beyond the usual limits of such assays
# Protocol Conditions: source organism: Vibrio vulnificus YJ016

[
  {
    "Residue Codes": "IVAQGIAAL",
    "Kd": "≥ 20 µM"
  }
]

----------
# Target: HLA-B*07:02
# Protocol Details: IEDB peptide-MHC binding, purified MHC/competitive/fluorescence; filed as Kd, often an IC50 or EC50 that approximates it; bounds were set here for any values at or beyond the usual limits of such assays
# Protocol Conditions: source organism: human gammaherpesvirus 4
pKd: −log10 of the molar value.
Assay Endpoint: pKd

[
  {
    "Residue Codes": "VPGSETMCY",
    "Assay Endpoint": "pKd",
    "Reported": "≤ 4.70"
  }
]

----------
# Target: HLA-B*15:01
# Protocol Details: IEDB peptide-MHC binding, purified MHC/competitive/fluorescence; bounds were set here for any values at or beyond the usual limits of such assays
# Protocol Conditions: source organism: Vaccinia virus Copenhagen
pIC50: −log10 of the molar value.
Assay Endpoint: pIC50

[
  {
    "Residue Codes": "RIPNSLHSL",
    "Assay Endpoint": "pIC50",
    "Reported": 4.64
  }
]

----------
# Target: HLA-A*02:12
# Protocol Details: IEDB peptide-MHC binding, purified MHC/direct/fluorescence; filed as Kd, often an IC50 or EC50 that approximates it; bounds were set here for any values at or beyond the usual limits of such assays
# Protocol Conditions: source organism: Toxoplasma gondii
pKd: −log10 of the molar value.

[
  {
    "Residue Codes": "LPPVVPPLI",
    "pKd": "≤ 4.70"
  }
]

----------
# Target: HLA-B*57:01
# Protocol Details: IEDB peptide-MHC binding, purified MHC/direct/fluorescence; filed as Kd, often an IC50 or EC50 that approximates it; bounds were set here for any values at or beyond the usual limits of such assays
# Protocol Conditions: source organism: Mycobacterium tuberculosis C
Assay Endpoint: Kd

[
  {
    "Residue Codes": "TPKIRFWHV",
    "Reported": "≥ 20 µM"
  }
]

----------
# Target: HLA-A*29:02
# Protocol Details: IEDB peptide-MHC binding, purified MHC/direct/fluorescence; filed as Kd, often an IC50 or EC50 that approximates it; bounds were set here for any values at or beyond the usual limits of such assays
# Protocol Conditions: source organism: Reston ebolavirus

[
  {
    "Residue Codes": "RRELSKEKL",
    "Kd": "≥ 20 µM"
  }
]

----------
# Target: HLA-B*51:01
# Protocol Details: IEDB peptide-MHC binding, purified MHC/direct/fluorescence; filed as Kd, often an IC50 or EC50 that approximates it; bounds were set here for any values at or beyond the usual limits of such assays
# Protocol Conditions: source organism: Mycobacterium tuberculosis
Assay Endpoint: Kd

[
  {
    "Residue Codes": "GPAGYTAAL",
    "Target": "HLA-B*51:01",
    "Reported": "≥ 20 µM"
  }
]
